Task for the reader: assign each of the following sequences its reported protein stability index.
# Test system: Saccharomyces cerevisiae;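 also: PSI is a weighted mean of sequencing reads over stability bins, variants kept only with over 10 reads, mCherry proximal and sfGFP distal, peptide attached via GGGS linker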
# testName: protein stability index of tFT-peptide fusion (C-terminal peptide) (PSI (0-1 scale)); higher = more stable (slower turnover)
# testContext: genetic background: das1 deletion; temperature: 30 C
Give bare numbers.

Check out these entries, answers already filled in.
VCLVLVVVWWSG	0.222
MLTYVVRSLVGY	0.37
AFPVGFLVGLVV	0.345
LSFYLRAVRASL	0.629

Need protein stability index for each of these sequences.
1. YFICLSLVLFSY
2. VLLLRRPLLVFS

1: 0.215; 2: 0.149

Batch request: protein stability index per item, same order as input.
1. WGAHRVRVSRIL
2. VVCPCIIYVPGV
3. FLYFLLQFLCSG

1. 0.656
2. 0.455
3. 0.418

Give protein stability index for all sequences that follow.
1. VNTLCCVFRCNL
2. SVECLCLFVACR
3. LVFRVSLVEVVL

1: 0.816; 2: 0.193; 3: 0.232

Could I get protein stability index for every one of these entries?
1. GGFHWCPSASRG
2. CRHCFVLLYFDY
3. YIILLSRKCAFC

1. 0.647
2. 0.321
3. 0.51

The following sequences each have a reported value; give each one's protein stability index.
1. LHASCVYTILLV
2. VFFLFLVFLTVV

1: 0.351; 2: 0.23

For the 8 sequences below, give their protein stability index values.
1. LPCPPSPASLPR
2. CPALTFCLLLSS
3. RFFKMREAIRIS
4. GLDLLTKFSKEC
5. RYKIEKKKLMNN
6. RICACHGIRFIP
7. KKKEILVYIIQE
8. GFVVYLLLSYLF

0.447
0.417
0.392
0.617
0.602
0.637
0.438
0.279

Could I get protein stability index for every one of these entries?
1. SYVRLDLFFFLG
2. LCFLVLLSLLLL
3. FLVVCGLLSWVW
4. RWRYHAYVITIL
5. WSFPFFLLPFLF

1: 0.491; 2: 0.464; 3: 0.263; 4: 0.392; 5: 0.44

Quick request: protein stability index for each listed item, please.
1. AFKRVFWALWWM
2. SEVMVGLRLTLN
3. PLRRPSWVVLSS
4. VYCTFLFAYTLP
5. ACVRFPLVLVVF
6. LALTRAAITHFF

1. 0.421
2. 0.628
3. 0.638
4. 0.443
5. 0.0965
6. 0.652
